Answer each item with its documented Ratio.
# test: Equieffective molar ratio of compound to inhibit hyperpolarization in cultured rat sympathetic neurons
# Format: functional, Sympathetic neuron

Value of measured Ratio for the entry Cc1cc(NCCCCCCCCCCNc2cc(C)[n+](Cc3ccccc3)c3ccccc23)c2ccccc2[n+]1Cc1ccccc1 : 0.6

Value of measured Ratio for the entry Cc1cc(NCCCCCCCCCCCCNc2cc(C)[n+](Cc3ccccc3)c3ccccc23)c2ccccc2n1 : 8

Value of measured Ratio for the entry COc1cc(C[n+]2c(C)cc(NCCCCCCCCCCNc3cc(C)nc4ccccc34)c3ccccc32)cc(OC)c1 : 1.2

Value of measured Ratio for the entry Cc1cc(NCCCCCCCCCCNc2cc(C)[n+](Cc3ccccc3)c3ccccc23)c2ccccc2n1 : 2.4

Value of measured Ratio for the entry C[n+]1ccc(CCCCCCCCCCc2cc[n+](C)c3ccccc23)c2ccccc21 : 26

Value of measured Ratio for the entry C[n+]1ccc(NCCCCCCCCCCNc2cc[n+](C)c3cc(Cl)ccc23)c2ccc(Cl)cc21 : 1.5

Value of measured Ratio for the entry C[n+]1ccc(NCCCCCCCCNc2cc[n+](C)c3ccccc23)c2ccccc21 : 3.1

Value of measured Ratio for the entry COc1cc(C[n+]2c(C)cc(NCCCCCCCCCCNc3cc(C)[n+](Cc4cc(OC)cc(OC)c4)c4ccccc34)c3ccccc32)cc(OC)c1 : 2.1

Value of measured Ratio for the entry c1ccc2c(OCCCCCCCCCCOc3ccnc4ccccc34)ccnc2c1 : 16

Value of measured Ratio for the entry Cc1cc(NCCCCCCCCCCCCNc2cc(C)[n+](Cc3ccccc3)c3ccccc23)c2ccccc2[n+]1Cc1ccccc1 : 4
